This collection of values is drawn from patent US9233933B2.

This listing pairs compounds with measured CC50.
- System: HepG2 cells
- EXPERIMENTAL_PARAMETERS: human, 4 days
TEST_READOUT: CC50

compound="COC(=O)C1=C(C)NC(c2nccs2)=NC12C(F)=C(F)c1cc(F)ccc12 (single isomer, unassigned) [Compound 166b]" value_measured="> 25 µM"
compound="COC(=O)C1=C(CN2CCOCC2)NC(c2ccccn2)=NC12CCc1c(F)cccc12 (single isomer, unassigned) [Compound 66b]" value_measured="> 100 µM"
compound="COC(=O)C1=C(CN2CCOCC2)NC(c2ccccn2)=NC12CCc1ccc(F)cc12 (single isomer, unassigned) [Compound 96b]" value_measured="> 100 µM"
compound="COC(=O)C1=C(C)NC(c2ncc(F)cc2F)=NC12c1ccccc1OC2(F)F (single isomer, unassigned) [Compound 106b]" value_measured="> 25 µM"
compound="COC(=O)C1=C(C)NC(c2nccs2)=NC12C(F)=Cc1c2ccc(F)c1F (single isomer, unassigned) [Compound 174b]" value_measured="> 25 µM"
compound="COC(=O)C1=C(C)NC(c2ncc(F)cc2F)=NC12CC(C)(C)c1ccccc12 (single isomer, unassigned) [Compound 134b]" value_measured="> 50 µM"
compound="COC(=O)C1=C(CN2CCOCC2)NC(c2ccccn2)=NC12c1ccc(F)cc1C(F)C2(F)F (single isomer, unassigned) [Compound 168B]" value_measured="> 25 µM"

----------
- System: HBV
- ASSAY_DETAILS: anti-HBV activity in stable transfected HepG2.2.15 cell line, HBV DNA from secreted virions by realtime PCR
- Format: cell-based, Hepatitis B virus
- EXPERIMENTAL_PARAMETERS: Hepatitis B virus, HepG2.2.15, 144 h, HepG2.2.15 cells, 6 days of treatment, secreted virion HBV DNA; read-out: HBV-HepG2 2.15 EC50
pEC50: −log10 of the molar value. Structures can show the parent of a compound that is named as a salt.
Each entry gets criterion not met if its pEC50 stays under 5, and criterion met if its pEC50 is 5 or above.

molecule="CCOC(=O)C1=C(CN2CCCC2)NC(c2ccccn2)=NC1(C)c1ccc(F)cc1 (centres unmarked)" class_label="criterion not met"
molecule="COC(=O)C1=C(CN2CCOCC2)NC(c2ccccn2)=NC12CC(=O)c1cc(F)ccc12 (centres unmarked) [139 •TFA]" class_label="criterion met"
molecule="COCC1=C(C(=O)OC)C(C)(c2ccc(F)c(F)c2)N=C(c2ncc(F)cc2F)N1 (centres unmarked)" class_label="criterion met"
molecule="CCOC(=O)C1=C(C)NC(c2ccccn2)=NC12CCc1cc(F)ccc12 (centres unmarked)" class_label="criterion not met"
molecule="COC(=O)C1=C(CN2CCOCC2)NC(c2ccccn2)=NC1(C)c1cccc(F)c1 (centres unmarked)" class_label="criterion met"
molecule="CC1(C)CCC2(N=C(c3ccccn3)NC(CN3CCOCC3)=C2C#N)c2ccccc21 (centres unmarked)" class_label="criterion not met"
molecule="COC(=O)C1=C(CN2CCOCC2)NC(c2ncc(F)cc2F)=NC12CCc1c2ccc(F)c1F (centres unmarked)" class_label="criterion met"
molecule="COC(=O)C1=C(CN2CCOCC2)NC(c2ccccn2)=NC1(C)c1ccc(F)cc1 (centres unmarked)" class_label="criterion met"
molecule="CCOC(=O)C1=C(CN2CCOCC2)NC(c2ncc(F)cc2F)=NC1(C)c1ccc(F)cc1 (centres unmarked)" class_label="criterion met"
molecule="COC(=O)C1=C(C)NC(c2ccccn2)=NC12CCc1ccccc12 (centres unmarked)" class_label="criterion met"
molecule="CCOC(=O)C1=C(C(F)(F)C(F)(F)F)NC(c2ccccn2)=NC1(C)c1ccc(F)cc1 (centres unmarked)" class_label="criterion not met"
molecule="COC(=O)C1=C(C)NC(c2ncc(F)cc2F)=NC1(C)c1ccc(F)c(C)c1 (centres unmarked)" class_label="criterion not met"
molecule="COC(=O)C1=C(C)NC(SC)=NC1(C)c1ccc(F)c(F)c1 (racemic)" class_label="criterion met"
molecule="N#CC1=C(CN2CCOCC2)NC(c2ccccn2)=NC12CCCc1cc(F)ccc12 (racemic)" class_label="criterion met"
molecule="COC(=O)C1=C(C)NC(c2ncc(F)cc2F)=NC1(C)c1ccc(F)c(F)c1 (single isomer, unassigned) [Compound 132a]" class_label="criterion not met"
molecule="COC(=O)C1=C(CN2CCOCC2)NC(c2ccccn2)=NC1(C)c1cc(F)cc(Cl)c1 (centres unmarked)" class_label="criterion met"
molecule="CCOC(=O)C1=C(CN2CCOCC2)NC(c2ccccn2)=NC1(C)c1ccc(F)c(Cl)c1 (centres unmarked)" class_label="criterion met"
molecule="COC(=O)C1=C(C)NC(c2nccs2)=NC12C(F)=C(F)c1cc(F)ccc12 (racemic)" class_label="criterion met"
molecule="COC(=O)C1=C(CN2CCOCC2)NC(c2ncc(F)cc2F)=NC1(C)c1cc(F)cc(Cl)c1 (centres unmarked)" class_label="criterion met"
molecule="COC(=O)C1=C(C#N)NC(c2ncc(F)cc2F)=NC1(C)c1ccc(F)c(F)c1 (single isomer, unassigned) [Compound 163a]" class_label="criterion not met"
molecule="COC(=O)C1=C(CN2CCOCC2)NC(c2ccccn2)=NC12CCc1ccccc12 (centres unmarked)" class_label="criterion met"
molecule="CCOC(=O)C1=C(C)NC(c2ccccn2)=NC1(C)c1ccc(F)c(Cl)c1 (centres unmarked)" class_label="criterion not met"
molecule="COC(=O)C1=C(C)NC(c2ncc(F)cc2F)=NC12C(=O)N(C)c1cc(F)ccc12 (centres unmarked)" class_label="criterion not met"
molecule="COC(=O)C1=C(CN2CCOCC2)NC(c2ccccn2)=NC12CC(C)c1cc(F)ccc12 (centres unmarked)" class_label="criterion met"
molecule="COC(=O)C1=C(C)NC(c2ncc(F)cc2F)=NC12CCc1c2ccc(F)c1F (centres unmarked)" class_label="criterion met"
molecule="CCOC(=O)C1=C(C#N)NC(c2ccccn2)=NC1(C)c1ccc(F)cc1 (centres unmarked)" class_label="criterion not met"
